IC50 for assorted molecules
Biological target: DRB1*1101 (Homo sapiens, UniProt P01903+P01911, A100R/A169T/A87E/I96F/K41T/L162R/M171V/P40S/Q125H/Q178H/Q39Y/Q99D/R42S/S66Y/T262R/V115G/W38E)
Sequence (P01903 26-254 limits assumed, other chains not shown): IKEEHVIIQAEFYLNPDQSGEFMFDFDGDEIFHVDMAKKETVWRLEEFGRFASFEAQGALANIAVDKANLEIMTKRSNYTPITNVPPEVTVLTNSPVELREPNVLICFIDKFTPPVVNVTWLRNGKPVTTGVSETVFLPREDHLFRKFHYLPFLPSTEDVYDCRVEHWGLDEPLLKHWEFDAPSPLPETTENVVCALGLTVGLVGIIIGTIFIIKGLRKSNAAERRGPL
Experiment: biochemical
Details: Binding affinity DRB1 *1101

Answered cases to consult:
Task item: Which measured IC50 value corresponds to CC[C@H](C)[C@H](NC(=O)[C@H](CO)NC(=O)[C@H](CC(C)C)NC(=O)[C@@H](NC(=O)[C@H](CC(C)C)NC(=O)[C@H](CC(=O)O)NC(=O)[C@H](Cc1c[nH]c2ccccc12)NC(=O)[C@@H](N)CCSC)C(C)C)C(=O)N[C@@H](C)C(=O)N[C@@H](CC(C)C)C(=O)N[C@@H](CO)C(=O)N[C@H](C(=O)NCC(=O)N[C@@H](CS)C(=O)N[C@H](C(=O)O)[C@@H](C)O)C(C)C [Peptide 68.0001] ?
Reply: > 20 µM

Task item: Param item: CC(C)C[C@H](NC(=O)[C@H](CCC(N)=O)NC(=O)[C@H](CC(=O)O)NC(=O)[C@H](CCC(=O)O)NC(=O)[C@H](CO)NC(=O)[C@H](CC(C)C)NC(=O)[C@@H]1CCCN1C(=O)[C@@H](NC(=O)[C@@H](N)[C@@H](C)O)C(C)C)C(=O)N[C@@H](CC(C)C)C(=O)N[C@@H](Cc1ccc(O)cc1)C(=O)N[C@@H](CC(C)C)C(=O)N1CCC[C@H]1C(=O)N[C@@H](Cc1ccccc1)C(=O)N[C@@H](CCCNC(=N)N)C(=O)O [Peptide 68.0147]
Reply: > 20 µM

Task item: Same question, CSCC[C@H](NC(=O)[C@H](CS)NC(=O)[C@H](CC(N)=O)NC(=O)[C@H](CC(=O)O)NC(=O)[C@H](CCCCN)NC(=O)[C@H](CC(N)=O)NC(=O)CN)C(=O)N[C@H](C(=O)N[C@@H](Cc1ccc(O)cc1)C(=O)N[C@H](C(=O)N[C@@H](C)C(=O)N[C@@H](Cc1c[nH]c2ccccc12)C(=O)N[C@@H](CC(=O)O)C(=O)N[C@@H](CO)C(=O)N[C@H](C(=O)O)C(C)C)C(C)C)[C@@H](C)O [Peptide 1601.09] this time
Reply: > 20 µM

Task item: Next: CSCC[C@H](NC(=O)CNC(=O)[C@H](CC(C)C)NC(=O)[C@H](CCC(N)=O)NC(=O)[C@@H](NC(=O)[C@H](CC(C)C)NC(=O)[C@H](CCC(N)=O)NC(=O)CNC(=O)[C@@H](N)Cc1ccccc1)[C@@H](C)O)C(=O)N[C@@H](CCC(=O)O)C(=O)N[C@@H](CCC(N)=O)C(=O)N[C@@H](Cc1c[nH]cn1)C(=O)N[C@@H](Cc1ccc(O)cc1)C(=O)N[C@@H](CCC(=O)O)C(=O)N[C@@H](CC(C)C)C(=O)O [Peptide 68.0028]
Reply: > 20 µM

Task item: For CSCC[C@H](NC(=O)[C@H](Cc1ccc(O)cc1)NC(=O)[C@H](Cc1ccc(O)cc1)NC(=O)[C@@H](NC(=O)[C@@H](N)CO)C(C)C)C(=O)N[C@H](C(=O)N[C@@H](CC(=O)O)C(=O)N[C@@H](C)C(=O)NCC(=O)N[C@H](C(=O)N[C@@H](Cc1c[nH]c2ccccc12)C(=O)N[C@@H](CC(=O)O)C(=O)N[C@@H](CCCCN)C(=O)N[C@H](C(=O)N[C@@H](C)C(=O)O)[C@@H](C)O)[C@@H](C)O)[C@@H](C)O [Peptide 90.0182] then?
Reply: 2.88 µM

Continuing:
Task item: Consider the molecule CC[C@H](C)[C@H](NC(=O)[C@@H](N)CCC(=O)O)C(=O)N[C@H](C(=O)N[C@@H](CC(C)C)C(=O)N[C@@H](Cc1c[nH]cn1)C(=O)N[C@@H](CC(C)C)C(=O)N[C@@H](CCC(=O)O)C(=O)N1CCC[C@H]1C(=O)N[C@@H](CCC(N)=O)C(=O)N[C@@H](CC(N)=O)C(=O)N[C@@H](CCC(=O)O)C(=O)N[C@@H](CC(C)C)C(=O)N[C@@H](CC(=O)O)C(=O)N1CCC[C@H]1C(=O)N[C@H](C(=O)O)C(C)C)C(C)C [Peptide 1543.20] and give its measured IC50.
Reply: > 20 µM

Task item: Ok, now CC(C)[C@H](NC(=O)[C@H](CCC(=O)O)NC(=O)[C@H](Cc1c[nH]c2ccccc12)NC(=O)[C@@H](NC(=O)CNC(=O)[C@@H](NC(=O)[C@H](CC(N)=O)NC(=O)CNC(=O)[C@H](Cc1ccc(O)cc1)NC(=O)[C@H](CCCCN)NC(=O)[C@@H](N)CCC(=O)O)[C@@H](C)O)[C@@H](C)O)C(=O)N[C@@H](Cc1c[nH]cn1)C(=O)N[C@@H](Cc1ccccc1)C(=O)NCC(=O)N[C@@H](CC(N)=O)C(=O)O [Peptide 1601.11]
Reply: > 20 µM

Task item: And what about the molecule CC[C@H](C)[C@H](NC(=O)[C@@H](N)CCCCN)C(=O)N[C@@H](Cc1ccccc1)C(=O)NCC(=O)N[C@@H](CO)C(=O)N[C@@H](CC(C)C)C(=O)N[C@@H](C)C(=O)N[C@@H](Cc1ccccc1)C(=O)N[C@@H](CC(C)C)C(=O)N1CCC[C@H]1C(=O)N[C@@H](CCC(=O)O)C(=O)N[C@@H](CO)C(=O)N[C@@H](Cc1ccccc1)C(=O)N[C@@H](CC(=O)O)C(=O)NCC(=O)N[C@@H](CC(=O)O)C(=O)N1CCC[C@H]1C(=O)N[C@@H](C)C(=O)O [Peptide 1533.07] ?
Reply: > 20 µM

Task item: Can you check CC[C@H](C)[C@H](NC(=O)[C@H](CO)NC(=O)[C@H](CO)NC(=O)[C@H](CC(=O)O)NC(=O)[C@H](C)NC(=O)[C@H](CC(N)=O)NC(=O)[C@@H](NC(=O)[C@H](Cc1ccc(O)cc1)NC(=O)[C@H](C)NC(=O)[C@@H](NC(=O)CNC(=O)[C@H](CCCNC(=N)N)NC(=O)[C@@H](N)CCC(=O)O)C(C)C)[C@@H](C)CC)C(=O)N[C@@H](CCC(=O)O)C(=O)NCC(=O)O [Peptide 68.0109] next?
Reply: > 20 µM

###

Each entry below carries its reported pIC50.
Molecular target: DR1 (DRB1*0101) (Homo sapiens, UniProt P01903+P01911, A100R/D57E/F55L/F60I/F76Y/I96L/L162R/M171V/P40L/Q125E/R42F/V115G/Y59C)
Experiment: biochemical
Format: binding
No end group written: not given here.
Entry type: numeric. Quantity: pIC50, the -log10 of concentration in molar units.

Look over these answered cases.
Task item: Dear colleague, I am looking for the recorded pIC50 of the following sequence: KIFGSLNFLPESFDGDPA [Peptide 9014.0242]
Reply: 6.65

Task item: Can you check PEWIDRLTVLQHSFN [Peptide 89.0070] next?
Reply: 5.58

Task item: Now try DSDIAYYYAQLADSN [Peptide 89.0071] .
Reply: 6.70

Task item: Same thing, different sequence: KIFGSLLFLPESFDGDPA [Peptide 9014.0241]
Reply: 6.36

Task item: Then this sequence: RTTVKTITLSAELPK [Peptide 9014.0065]
Reply: 6.14

Task item: Follow-up item: NTEVETQQMVQVEEQ [Peptide 89.0039]
Reply: 5.58

More entries:
Task item: Which pIC50 is reported for this sequence? VSFLSALKLFLKGVP [Peptide 89.0053]
Reply: 7.64

Task item: Again, but for TTPIIHKLGDRNSLK [Peptide 1601.17]
Reply: 7.07

Task item: Field entry: KNRLTVAKLMSNLLS [Peptide 89.0064]
Reply: 8.25

Task item: Can you handle GCWRQTSREPRESTV [Peptide 1543.46] next?
Reply: 5.58

Task item: Queued: RLTVAKGLSTLLHVP [Peptide 89.0028]
Reply: 7.34

###

pIC50 listing for selected sequences.
Biological target: DRB1*0901 (Homo sapiens, UniProt P01903+P01911, A100R/A103E/D57H/D86V/F55Y/F60I/F76Y/I96F/K127E/L162R/M171V/P40D/Q125H/Q99R/R33Q/R42F/S133A/S66N/T210M/V115G/W38K/Y107V/Y59G/Y89S)
Test: biochemical
Format: binding
No end group written: not given here.
pIC50 here: minus log base 10 of the concentration, concentration in moles per litre.

Task item: Could you tell me which pIC50 is on file for QAELETAQALFHAQE [Peptide 89.0022] ?
Reply: 6.47

Task item: QQTVCREGVKRRLIL [Peptide 90.0129] ?
Reply: 5.41

Next:
Task item: Which pIC50 is reported for this sequence? DWCVAAFGVTGTVAE [Peptide 89.0042]
Reply: 6.05

The measurements presented in this section are drawn from patent US9340577B2.
